Data origin, for the record: patent US20040106545A1

# MEASURED_TARGET: T1, chick N-cadherin expressed on transfected 3T3 cells (chick, UniProt P10288 165-912)
# T1 sequence (looked up): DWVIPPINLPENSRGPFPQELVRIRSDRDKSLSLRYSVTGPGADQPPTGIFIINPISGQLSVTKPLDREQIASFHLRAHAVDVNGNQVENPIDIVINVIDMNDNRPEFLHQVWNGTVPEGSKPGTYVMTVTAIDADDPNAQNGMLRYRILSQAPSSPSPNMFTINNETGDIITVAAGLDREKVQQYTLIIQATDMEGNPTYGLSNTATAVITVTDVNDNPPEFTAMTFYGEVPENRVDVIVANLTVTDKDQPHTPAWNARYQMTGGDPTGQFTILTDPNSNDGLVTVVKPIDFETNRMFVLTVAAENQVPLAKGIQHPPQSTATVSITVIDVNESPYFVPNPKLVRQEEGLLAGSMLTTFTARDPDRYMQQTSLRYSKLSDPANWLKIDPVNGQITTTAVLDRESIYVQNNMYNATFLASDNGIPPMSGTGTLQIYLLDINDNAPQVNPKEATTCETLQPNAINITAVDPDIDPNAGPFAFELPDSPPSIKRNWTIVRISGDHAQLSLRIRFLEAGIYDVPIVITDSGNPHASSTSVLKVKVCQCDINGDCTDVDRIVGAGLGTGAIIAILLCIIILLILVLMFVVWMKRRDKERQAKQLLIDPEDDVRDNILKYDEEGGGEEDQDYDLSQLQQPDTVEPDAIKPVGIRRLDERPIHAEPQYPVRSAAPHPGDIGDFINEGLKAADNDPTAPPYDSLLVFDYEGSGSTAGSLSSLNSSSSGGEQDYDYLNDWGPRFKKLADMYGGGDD
# ASSAY_SUMMARY: cell-based or functional assay
Positions of bridges follow the written chain, without caps; N, C: chain ends.
Known % inhibition of N-cadherin dependent neurite outgrowth (peptide 250 µg/mL) of a selection of binders
ENDPOINT_NAME: % inhibition of N-cadherin dependent neurite outgrowth (peptide 250 µg/mL)

{"BINDER": "Ac-CSHAVSSC-NH2 (disulfide 1-8; SMILES CC(=O)N[C@H]1CSSC[C@@H](C(N)=O)NC(=O)[C@H](CO)NC(=O)[C@H](CO)NC(=O)[C@H](C(C)C)NC(=O)[C@H](C)NC(=O)[C@H](Cc2c[nH]cn2)NC(=O)[C@H](CO)NC1=O) [N-Ac-CSHAVSSC-NH2]", "RESULT": "-12.6%"}
{"BINDER": "H-CAHAVDIC-NH2 (disulfide 1-8 (inferred)) [H-CAHAVDIC-NH2]", "RESULT": "-3.7%"}
{"BINDER": "Ac-CAHGVDC-NH2 (disulfide 1-7 (inferred)) [N-Ac-CAHGVDC-NH2]", "RESULT": "4%"}
{"BINDER": "H-CAHGVDC-NH2 (disulfide 1-7 (inferred)) [H-CAHGVDC-NH2]", "RESULT": "5.7%"}
{"BINDER": "Ac-CHGVSC-NH2 (disulfide 1-6 (inferred)) [N-Ac-CHGVSC-NH2]", "RESULT": "-6.7%"}
{"BINDER": "H-CAHGVDIC-NH2 (disulfide 1-8 (inferred)) [H-CAHGVDIC-NH2]", "RESULT": "7.2%"}
{"BINDER": "Ac-CSHGVSSC-NH2 (disulfide 1-8; SMILES CC(=O)N[C@H]1CSSC[C@@H](C(N)=O)NC(=O)[C@H](CO)NC(=O)[C@H](CO)NC(=O)[C@H](C(C)C)NC(=O)CNC(=O)[C@H](Cc2c[nH]cn2)NC(=O)[C@H](CO)NC1=O) [N-Ac-CSHGVSSC-NH2]", "RESULT": "-5.6%"}
{"BINDER": "Ac-CAHGVDIC-NH2 (disulfide 1-8 (inferred)) [N-Ac-CAHGVDIC-NH2]", "RESULT": "4.8%"}
{"BINDER": "Ac-CAHAVDIC-NH2 (disulfide 1-8 (inferred)) [N-Ac-CAHAVDIC-NH2]", "RESULT": "89.4%"}
{"BINDER": "Ac-CAHGVC-NH2 (disulfide 1-6 (inferred)) [N-Ac-CAHGVC-NH2]", "RESULT": "-6.4%"}
{"BINDER": "Ac-CHAVSC-NH2 (disulfide 1-6 (inferred)) [N-Ac-CHAVSC-NH2]", "RESULT": "-2.5%"}
{"BINDER": "Ac-CAHAVDC-NH2 (disulfide 1-7 (inferred)) [N-Ac-CAHAVDC-NH2]", "RESULT": "13.3%"}
{"BINDER": "H-CAHAVDC-NH2 (disulfide 1-7; SMILES CC(C)[C@@H]1NC(=O)[C@H](C)NC(=O)[C@H](Cc2c[nH]cn2)NC(=O)[C@H](C)NC(=O)[C@@H](N)CSSC[C@@H](C(N)=O)NC(=O)[C@H](CC(=O)O)NC1=O) [H-CAHAVDC-NH2]", "RESULT": "1.3%"}
{"BINDER": "Ac-CSHGVC-NH2 (disulfide 1-6; SMILES CC(=O)N[C@H]1CSSC[C@@H](C(N)=O)NC(=O)[C@H](C(C)C)NC(=O)CNC(=O)[C@H](Cc2c[nH]cn2)NC(=O)[C@H](CO)NC1=O) [N-Ac-CSHGVC-NH2]", "RESULT": "12.5%"}
{"BINDER": "Ac-CSHGVSC-NH2 (disulfide 1-7; SMILES CC(=O)N[C@H]1CSSC[C@@H](C(N)=O)NC(=O)[C@H](CO)NC(=O)[C@H](C(C)C)NC(=O)CNC(=O)[C@H](Cc2c[nH]cn2)NC(=O)[C@H](CO)NC1=O) [N-Ac-CSHGVSC-NH2]", "RESULT": "10.8%"}
{"BINDER": "H-CHAVC-NH2 (disulfide 1-5 (inferred)) [H-CHAVC-NH2]", "RESULT": "1.7%"}
{"BINDER": "Ac-CRAHAVDC-NH2 (disulfide 1-8 (inferred)) [N-Ac-CRAHAVDC-NH2]", "RESULT": "-5%"}
{"BINDER": "Ac-CHAVDC-NH2 (disulfide 1-6 (inferred)) [N-Ac-CHAVDC-NH2]", "RESULT": "88.4%"}
{"BINDER": "Ac-CLRAHGVDC-NH2 (disulfide 1-9 (inferred)) [N-Ac-CLRAHGVDC-NH2]", "RESULT": "-6.8%"}
{"BINDER": "Ac-CLRAHAVC-NH2 (disulfide 1-8 (inferred)) [N-Ac-CLRAHAVC-NH2]", "RESULT": "9.9%"}
